Cited source for all entries: patent US10676446B2

# maps each entry to its pIC50
system-under-test: human ATX (autotaxin, ENPP2), His-tagged (Homo sapiens (Human), UniProt Q13822)
pIC50: −log10 of the molar value.

compound: CC(=O)N1CCN(c2ccc3ncn(CC(=O)NC(CC(=O)NCc4ccccc4)c4ccc(C(F)(F)F)cc4)c(=O)c3c2)CC1 (stereo not shown)
system-under-test: human ATX (autotaxin, ENPP2), His-tagged (Homo sapiens (Human), UniProt Q13822)
pIC50: 6.55

compound: CC(=O)N1CCN(c2ccc3ncn(CC(=O)N(C)Cc4ccc(Cl)c(Cl)c4)c(=O)c3c2)CC1
system-under-test: human ATX (autotaxin, ENPP2), His-tagged (Homo sapiens (Human), UniProt Q13822)
pIC50: 7.77

compound: CC(=O)N1CCN(c2ccc3ncn(CC(=O)NCc4ccc(C#N)nc4)c(=O)c3c2)CC1
system-under-test: human ATX (autotaxin, ENPP2), His-tagged (Homo sapiens (Human), UniProt Q13822)
pIC50: 7.85

compound: CC(=O)N1CCC(c2ccc3ncn(CC(=O)NCc4cc(Cl)cc(Cl)c4)c(=O)c3c2)CC1
system-under-test: human ATX (autotaxin, ENPP2), His-tagged (Homo sapiens (Human), UniProt Q13822)
pIC50: 7.60

compound: CN(Cc1ccc(Cl)c(Cl)c1)C(=O)Cn1cnc2ccc(N3CCN(C(=O)C4(C)COC4)CC3)cc2c1=O
system-under-test: human ATX (autotaxin, ENPP2), His-tagged (Homo sapiens (Human), UniProt Q13822)
pIC50: 7.92

compound: CNC(=O)CCN(Cc1ccc(Cl)c(Cl)c1)C(=O)Cn1cnc2ccc(N3CCN(C(C)=O)CC3)cc2c1=O
system-under-test: human ATX (autotaxin, ENPP2), His-tagged (Homo sapiens (Human), UniProt Q13822)
pIC50: 7.42

compound: CN(Cc1ccc(Cl)c(Cl)c1)C(=O)Cn1cnc2ccc(N3CCN(C(=O)C4COC4)CC3)cc2c1=O
system-under-test: human ATX (autotaxin, ENPP2), His-tagged (Homo sapiens (Human), UniProt Q13822)
pIC50: 8.00
